Biological target: human PPARα (Homo sapiens)
Construct: amino acids S167-Y468
Sequence (Q07869 167-468): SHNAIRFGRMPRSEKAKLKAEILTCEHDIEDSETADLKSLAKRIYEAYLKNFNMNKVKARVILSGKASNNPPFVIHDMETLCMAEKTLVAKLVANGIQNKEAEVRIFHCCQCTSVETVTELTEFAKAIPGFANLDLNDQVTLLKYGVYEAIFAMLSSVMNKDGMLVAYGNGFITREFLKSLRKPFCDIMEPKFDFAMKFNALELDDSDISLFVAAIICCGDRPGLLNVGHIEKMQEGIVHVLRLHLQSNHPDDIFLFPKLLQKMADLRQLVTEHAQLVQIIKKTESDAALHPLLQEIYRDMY
Assay: Cellular PPARalpha assay (stably transfected HEK PPARalpha reporter cell line, luciferase)
Conditions: 24 h incubation, luciferase readout
pEC50: −log10 of the molar value. Where a name gives a salt, the structure may show the parent alone.
test readout: pEC50

Here's what some known entries look like.
1) Cc1ccc(-c2nc(CO[C@@H]3CCC[C@H](CSCC(=O)O)C3)c(C)o2)cc1 (racemic) ... 10.15
2) Cc1ccc(-c2nc(COC3CCCC(CN(Cc4ccccc4)[C@H](C(=O)O)C(C)C)C3)c(C)o2)cc1 (mixture of isomers) [Example 51, trifluoroacetic acid salt] ... 7.92
3) COc1cccc(-c2nc(CO[C@@H]3CCC[C@H](CCC(C(=O)O)C(C)C)C3)c(C)o2)c1 (relative stereo) ... 9.40
4) Cc1ccc(-c2nc(COC3CCCC(CN[C@H](C(=O)O)C(C)C)C3)c(C)o2)cc1 (mixture of isomers) ... 7.10

P = CCCCCC(C(=O)O)S(=O)(=O)CC1CCCC(OCc2nc(-c3ccc(C)cc3)oc2C)C1 (stereo not shown)
Q = CCc1oc(-c2ccc3ccccc3c2)nc1COC[C@@H]1CCC[C@H](COC(C)(C)C(=O)O)C1 (racemic)
R = Cc1oc(-c2ccc(C(F)(F)F)cc2)nc1COC1CCCC(COC(C)(C)C(=O)O)C1 (stereo not shown)
Challenge: Given 3 compounds, produce a descending ranking by pEC50. I'd appreciate it if you listed the labels in the requested order.
Response given: Q, R, P
(Q: 9.40, R: 8.40, P: 8.07)
